The origin of these recorded values is ChEMBL document CHEMBL3433997.

Entries annotated with measured inhibition
# Measurement target: Glucose transporter (Leishmania mexicana) (UniProt O61059)
# Experiment notes: ST_JUDE_LEISH: Cytotoxicity at 2uM final concentration against transgenic Leishmania Mexicana promastigotes LmGT2 that are glucose transport deficient and complemented with the L. Mexicana glucose transporter 2. Activity is measured by DNA content using SYBR green in vitro
# Type: functional
Report the value in % with no unit label.

Solved entries:
>>> observed_result("CCn1c(-c2nonc2N)nc2c(-c3cccc(Cl)c3)ncc(OCCCNCc3cnc(C)nc3N)c21")
2.98
>>> observed_result("O=C(Nc1ccc(OC2CCN(CC3CC3)CC2)c(Cl)c1)c1ccc2ncccc2c1")
7.58
>>> observed_result("O=C(Nc1ccc2nc3n(c(=O)c2c1)CCCCC3)C(=O)N1CCN(c2ccc(F)cc2)CC1")
7.95
>>> observed_result("CS(=O)(=O)CCNc1cc(N2CCc3ncnc(Nc4ccc(OCc5cccc(F)c5)c(Cl)c4)c3C2)ncn1")
0.08
>>> observed_result("CC(=O)Nc1nc(C(=O)Nc2ccc(-c3ccc(-c4nc5ccccc5[nH]4)cc3)cc2)cs1")
3.01

Need inhibition of O=C(O[C@H]1CN[C@H](C#Cc2cc3c(Nc4ccc(OCc5cccc(F)c5)c(Cl)c4)ncnc3s2)C1)N1CCCC1 , thanks.
4.65

GET /values?readout=inhibition&item= CC(C)C[C@H](NC(=O)c1cc2ccccc2s1)C(=O)N[C@H]1CCN(Cc2ccc(OCCN3CCNCC3)c3ccccc23)C1
0.51

Need inhibition, item CCOC(=O)NC1=NC(C)(C)N(OCCCOc2cc(Cl)c(Cl)cc2Cl)C(NC(=O)OCC)=N1
1.36

Dear colleague, I am looking for the recorded inhibition of the following molecule: Cn1cnc2c(SCc3ccc(OCc4ccccc4)cc3)ncnc21
6.37

Value lookup for inhibition; key = CS(=O)(=O)c1ccc(CCNCc2ccc(-c3ccc(CN(C(=O)c4cccc(C#N)c4)C4CCN(Cc5ccccc5)CC4)cc3)nc2)cc1
5.74

For the molecule shown here, CN(C)CCC(O)(c1ccc(Br)cc1)c1cccnc1 (stereo not drawn) , give the reported inhibition.
0.51

For Cc1cc(C2CCN(CCCCNC(=O)c3ccc(NC(=O)c4ccc(Cl)cc4)cc3)CC2)c(C)cc1OCc1ccccn1 , what is its reported inhibition?
0.11

====

Recorded inhibition for the following compounds
# Measurement target: Glucose transporter (Leishmania mexicana)
# Experiment notes: ST_JUDE_LEISH: Cytotoxicity at 2uM final concentration against transgenic Leishmania Mexicana promastigotes LmGT2 that are glucose transport deficient and complemented with the L. Mexicana glucose transporter 2. Activity is measured by DNA content using SYBR green in vitro
# Assay type: functional
Number in %, nothing else.

>>> observed_result("Cc1cc(N[C@@H](CC(C)C)C(=O)NC2CCCC2)nc(NCC2CCCCC2)n1")
0.25

Could you share what inhibition was measured for Cc1ccc2[nH]c(-c3ccc(C=CC(=O)NCc4ccc(Cl)c(Cl)c4)cc3)nc2c1 , tested on Glucose transporter (Leishmania mexicana)?
4.93

Hello, I am looking for reported inhibition with Glucose transporter (Leishmania mexicana) for CC(C)(C)Oc1ccc(NC(=O)c2ccccc2O)cc1 . Could you help?
4.28

Quick check: inhibition on Glucose transporter (Leishmania mexicana), item COc1ccc(-n2ccnc2SCC(=O)Nc2cccc(C(F)(F)F)c2)c(OC)c1 ?
-0.9

Recall the recorded inhibition for CCN(CC)CCN(Cc1ccc(-c2ccc(C(F)(F)F)cc2)cc1)C(=O)Cn1c(CCc2cccc(F)c2F)nc(=O)c2cc(F)c(F)cc21 with Glucose transporter (Leishmania mexicana) and state it.
9.47

// fetch Glucose transporter (Leishmania mexicana) inhibition for COc1ccc(-c2cccc(NC(=O)c3cccc(C#N)c3)c2)cc1CN1CCCC1
5.27

Tell me reported inhibition for CCN(CC)CCOc1ccc(N(Cc2ccc(C(C)(C)C)cc2)C(=O)c2ccc(Cc3ccccc3)cc2)cc1OC , tested with Glucose transporter (Leishmania mexicana).
13.1

Request: inhibition, test system Glucose transporter (Leishmania mexicana), entry CS(=O)(=O)c1ccc(CCNCc2ccc(-c3ccc(CN(C(=O)C4CC(=O)c5ccccc54)C4Cc5ccccc5C4)cc3)nc2)cc1 (configuration not stated)
-0.89

Under Glucose transporter (Leishmania mexicana): inhibition value of O=C1C[C@@H]([S+]([O-])Cc2nccs2)N1CCOCCCCCCc1ccc(Cl)cc1 (some centres not stated) ?
9.2

Request - read-out inhibition | tested on Glucose transporter (Leishmania mexicana) | compound CN1CCN(c2ccnc3ccc(NC(=O)Nc4ccc5ccccc5c4)cc23)CC1
2.8

Reported inhibition for Glucose transporter (Leishmania mexicana), given Cc1cc(O)c2c3c1C(=O)C=C1C3c3c(c(O)cc(O)c3C(=O)C1(C)C)C2=O (configuration not stated) ?
-3.43

Query inhibition on Glucose transporter (Leishmania mexicana) for COc1ccc(Nc2nc(NC3CCN(Cc4ccccc4)CC3)cc(-c3ccncc3)n2)cc1
0.86

Form field: inhibition recorded for O=C(Nc1ccc(C(=O)N2CCN(CCN3CCN(c4cccc(C(F)(F)F)c4)CC3)CC2)cc1)c1ccc(OC(F)(F)F)cc1 with Glucose transporter (Leishmania mexicana) (enter value)
-2.39

Can you look up inhibition on Glucose transporter (Leishmania mexicana) for COc1ccc2nccc([C@@H](O)CN3CCC(NCc4nc5ccc(F)cc5[nH]4)CC3)c2c1 ?
2.2

Quick check: inhibition on Glucose transporter (Leishmania mexicana), item O=C(/C=C/c1ccc(Cl)c(Cl)c1)NCCCCCN1CCC(c2n[nH]c(-c3ccccc3)c2Br)CC1 ?
0.22

# get_value(readout= inhibition, system= Glucose transporter (Leishmania mexicana)) for CCCCNC(=O)[C@H](CC1CCCCC1)NC(=O)c1ccc(O)c(-c2ccc(Cl)c(Cl)c2)c1
0.36

Missing value: inhibition, Glucose transporter (Leishmania mexicana), entry N#Cc1ccc(C(=O)Nc2cccc(-c3ccc(CN4CCCC4)cc3)c2)cc1 . Fill in?
9.04

What inhibition appears in the records for this compound with Glucose transporter (Leishmania mexicana)? OC(COc1ccccc1-c1nc2ccccc2o1)CN1CCCN(CCc2ccccc2)CC1 (configuration not stated)
-0.36

Lab note: need inhibition with Glucose transporter (Leishmania mexicana) for entry O=C(/C=C/c1ccc(Cl)c(Cl)c1)NCCCCCN1CCC(NC(=O)c2cc(Cl)ccc2F)CC1 , please look it up.
-0.02
